TARGET_OR_TEST_SYSTEM: VEGF
MEASUREMENT_DESCRIPTION: cell-based or functional assay
QUANTITY_MEASURED: IC50 (nM), VEGF HUVEC proliferation assay
Kindly provide the numeric value in nM only, without the unit symbol.

Consider the binder shown here: VEGFBII022 (VHH, biparatopic bivalent VHH in one chain; also called VEGFBII23B04-9GS-5B05) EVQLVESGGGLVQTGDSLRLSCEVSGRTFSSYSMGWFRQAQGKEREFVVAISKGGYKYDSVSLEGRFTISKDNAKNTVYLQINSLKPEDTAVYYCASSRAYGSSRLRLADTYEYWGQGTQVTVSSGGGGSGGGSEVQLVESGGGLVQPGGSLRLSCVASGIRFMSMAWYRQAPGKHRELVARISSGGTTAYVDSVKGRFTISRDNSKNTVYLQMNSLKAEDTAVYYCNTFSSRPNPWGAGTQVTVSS What is its recorded IC50 (nM), VEGF HUVEC proliferation assay? 0.34

Fill blank: measured IC50 (nM), VEGF HUVEC proliferation assay of the binder VEGFBII010 (VHH, bivalent VHH in one chain; also called VEGFBII23B04-35GS-23B04; homodimeric VEGFBII23B04) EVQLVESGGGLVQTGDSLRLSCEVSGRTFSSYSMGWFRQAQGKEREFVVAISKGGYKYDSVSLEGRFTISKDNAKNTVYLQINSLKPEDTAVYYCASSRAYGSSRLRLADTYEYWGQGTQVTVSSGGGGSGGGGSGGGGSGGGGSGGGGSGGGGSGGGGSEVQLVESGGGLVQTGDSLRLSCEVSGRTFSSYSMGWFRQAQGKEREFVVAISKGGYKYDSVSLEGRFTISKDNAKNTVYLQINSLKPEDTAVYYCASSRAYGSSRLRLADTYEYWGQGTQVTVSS is ____. 0.22

Can you share its IC50 (nM), VEGF HUVEC proliferation assay? I mean this binder: VEGFBII021 (VHH, biparatopic bivalent VHH in one chain; also called VEGFBII23B04-40GS-5B05) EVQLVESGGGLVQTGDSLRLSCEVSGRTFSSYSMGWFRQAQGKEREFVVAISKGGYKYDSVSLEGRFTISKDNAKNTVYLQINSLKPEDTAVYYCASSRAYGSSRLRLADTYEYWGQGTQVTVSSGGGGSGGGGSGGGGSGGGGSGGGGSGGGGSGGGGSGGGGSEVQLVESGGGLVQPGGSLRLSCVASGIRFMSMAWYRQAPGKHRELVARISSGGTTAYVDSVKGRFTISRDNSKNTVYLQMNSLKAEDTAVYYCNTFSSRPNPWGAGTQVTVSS 0.4

Sample VEGFBII024 (VHH, biparatopic bivalent VHH in one chain; also called VEGFBII23B04-40GS-86H09; VEGFBI024) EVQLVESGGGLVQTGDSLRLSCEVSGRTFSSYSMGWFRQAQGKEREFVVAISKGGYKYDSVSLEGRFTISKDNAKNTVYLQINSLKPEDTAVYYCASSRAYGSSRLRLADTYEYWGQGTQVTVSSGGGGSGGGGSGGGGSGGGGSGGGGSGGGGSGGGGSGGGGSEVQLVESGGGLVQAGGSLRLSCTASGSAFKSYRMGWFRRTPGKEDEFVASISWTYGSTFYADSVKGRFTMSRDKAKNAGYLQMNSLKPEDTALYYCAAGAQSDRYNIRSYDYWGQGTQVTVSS — what was its IC50 (nM), VEGF HUVEC proliferation assay? 0.38

meta.source: patent US20170247475A1
